We begin with a simple list: items and their reported GRinf.
test system: Mycobacterium tuberculosis Erdman (autoluminescent); assay: GRinf, maximum normalised growth rate inhibition (unitless (-1 to 1)); higher = less effect (negative = killing); details: in vitro model: dormancy (butyrate + nitrate, low O2); time point: constant (~7 days, model-specific)
Answer as a number with no unit attached.

For orientation, consider the following solved cases.
compound	target_desc	GRinf
CC(C)/N=c1\cc2n(-c3ccc(Cl)cc3)c3ccccc3nc-2cc1Nc1ccc(Cl)cc1 [clofazimine] + NC(=O)c1cnccn1 [pyrazinamide]	Mycobacterium tuberculosis Erdman (autoluminescent)	-0.0386
COc1c(N2C[C@@H]3CCCN[C@@H]3C2)c(F)cc2c(=O)c(C(=O)O)cn(C3CC3)c12 [moxifloxacin] + CO[C@H]1/C=C/O[C@@]2(C)Oc3c(C)c(O)c4c(O)c(c(/C=N/N5CCN(C6CCCC6)CC5)c(O)c4c3C2=O)NC(=O)/C(C)=C\C=C\[C@H](C)[C@H](O)[C@@H](C)[C@@H](O)[C@@H](C)[C@H](OC(C)=O)[C@@H]1C [rifapentine]	Mycobacterium tuberculosis Erdman (autoluminescent)	0.17
NNC(=O)c1ccncc1 [isoniazid] + CO[C@H]1/C=C/O[C@@]2(C)Oc3c(C)c(O)c4c(O)c(c(/C=N/N5CCN(C6CCCC6)CC5)c(O)c4c3C2=O)NC(=O)/C(C)=C\C=C\[C@H](C)[C@H](O)[C@@H](C)[C@@H](O)[C@@H](C)[C@H](OC(C)=O)[C@@H]1C [rifapentine]	Mycobacterium tuberculosis Erdman (autoluminescent)	0.144

Any idea what its GRinf is? The compound is COc1nc2ccc(Br)cc2cc1[C@@H](c1ccccc1)[C@@](O)(CCN(C)C)c1cccc2ccccc12 [bedaquiline] + CO[C@H]1/C=C/O[C@@]2(C)Oc3c(C)c(O)c4c(O)c(c(/C=N/N5CCN(C6CCCC6)CC5)c(O)c4c3C2=O)NC(=O)/C(C)=C\C=C\[C@H](C)[C@H](O)[C@@H](C)[C@@H](O)[C@@H](C)[C@H](OC(C)=O)[C@@H]1C [rifapentine]
0.16

# iterate: NNC(=O)c1ccncc1 [isoniazid] + CO[C@H]1/C=C/O[C@@]2(C)Oc3c(C)c(O)c4c(O)c(c(/C=N/N5CCN(C)CC5)c(O)c4c3C2=O)NC(=O)/C(C)=C\C=C\[C@H](C)[C@H](O)[C@@H](C)[C@@H](O)[C@@H](C)[C@H](OC(C)=O)[C@@H]1C [rifampicin]
0.104

And the next one, COc1nc2ccc(Br)cc2cc1[C@@H](c1ccccc1)[C@@](O)(CCN(C)C)c1cccc2ccccc12 [bedaquiline] + CC(=O)NC[C@H]1CN(c2ccc(N3CCOCC3)c(F)c2)C(=O)O1 [linezolid] ?
0.113

One more compound: CC(=O)NC[C@H]1CN(c2ccc(N3CCOCC3)c(F)c2)C(=O)O1 [linezolid] + COc1c(N2C[C@@H]3CCCN[C@@H]3C2)c(F)cc2c(=O)c(C(=O)O)cn(C3CC3)c12 [moxifloxacin]
0.139

CC[C@@H](CO)NCCN[C@@H](CC)CO [ethambutol] + NNC(=O)c1ccncc1 [isoniazid] , same question.
0.454

Now the compound NNC(=O)c1ccncc1 [isoniazid] + CC(=O)NC[C@H]1CN(c2ccc(N3CCOCC3)c(F)c2)C(=O)O1 [linezolid]
0.109

Then this compound: COc1c(N2C[C@@H]3CCCN[C@@H]3C2)c(F)cc2c(=O)c(C(=O)O)cn(C3CC3)c12 [moxifloxacin] + CO[C@H]1/C=C/O[C@@]2(C)Oc3c(C)c(O)c4c(O)c(c(/C=N/N5CCN(C)CC5)c(O)c4c3C2=O)NC(=O)/C(C)=C\C=C\[C@H](C)[C@H](O)[C@@H](C)[C@@H](O)[C@@H](C)[C@H](OC(C)=O)[C@@H]1C [rifampicin]
0.0564

Entry source: the supplement of paper PMC8617591
